- targetEntity: T1, human IL-13 variant (R130Q) (human, UniProt P35225 35-146)
- T1 construct: called R110Q in the assay descriptions (mature numbering); also called h IL-13v; hIL-13v
- T1 sequence (P35225 35-146 limits assumed, stated change not applied): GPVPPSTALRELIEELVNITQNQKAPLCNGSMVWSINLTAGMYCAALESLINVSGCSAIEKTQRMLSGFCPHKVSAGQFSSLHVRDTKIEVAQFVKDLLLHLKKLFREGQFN
- measurementNotes: SPR (Biacore), mAb captured, IL-13 as analyte
readoutName: kon (M⁻¹ s⁻¹)
Quick note: give the figure in M⁻¹ s⁻¹, leave out the unit.

binder	unitString	kon
9C11 (antibody, V domains shown) VH: QVRLQQPGAELVRPGASVKLSCKASGYTFTSSWIHWVNQRPGQGLEWIGMIHPSDSETRLNQKFKDKATLTVDKSSSTAYMQLSSPTSEDSAVYYCASTATDFDYWGQGTTLTVSS VL: DVVLTQTPLSLPVNIGDQASISCRSTQTLLNSDGFTYLDWYLQKPGQSPQLLIYLVSNRFSGVPDRFSGSGSGTDFTLKISRVEAEDLGVYYCFQNNYLPLTFGAGTKLELKR	M⁻¹ s⁻¹	637000
5D3 (antibody, V domains shown) VH: QVQLKESGPGLVAPSQSLSITCTVSGFSLTGYNINWVRQPPGKGLEWLGLIWGDGNTAFNSALKSRLSISKDNSKSQVFLKLNSLQTDDTARYYCARDGYYPYAIKYWGQGTSVTVSS VL: NIVLTQSPASLAVSLGQRATISCRASETVDSYGNSFMHWYQQKPGQPPKLLIYLASNLESGVPARFSGSGSRTDFTLTIDPVEADDAATYYCQQNNEDPRTFGGGTKLEIKR	M⁻¹ s⁻¹	1.51e+06
5F1 (antibody, V domains shown) VH: QVQLQQSGAELARPGTSVKLSCKASGYTFTTYGISWVKQRTGQGLEWIGEIYPGSYNTYYNEKFRGKATLTADKSSSTAYMQLSSLTSEDSAVYFCSRWRTSYFSDYGYFDYWGQGTTLTVSS VL: DVVMTQTPLSLPVSLGDQASISCRSSQSLVHSHGNTYLHWYLQKPGQSPKLLIYTVSNRFSGVPDRFSGSGSGTDFTLKISRVEAEDLGVYFCSQSTHVPYTFGGGTKLEIKR	M⁻¹ s⁻¹	502000
8B6 (antibody, V domains shown) VH: QVQLKESGPGLVAPSQSLSITCTVSGFSLTGHNINWVRQPPGKGLEWLGMIWGDGNTDFNSALKSRLSISKDNSKSQVFLKLNSLQTDDTARYYCARDGYYPYAIKFWGQGTSVTVSS VL: HIVLTQSPASLAVSLGQRATISCRASETVDSYGSSFLHWYQQKPGQPPKLLIYLASKLESGVPARFSGSGSRTDFTLTIDPVEADDAATYYCQQNNEGPRTFGGGSKLEIKR	M⁻¹ s⁻¹	983000

Prompt: Can you share its kon? I mean this binder: 5G1 (antibody, V domains shown) VH: QVQLQQSGAELARPGTSVKLSCKASGYTFTTYGVSWVKQRTGQGLEWIGEIYPGNYNTYYNEKFRGKATLTADKSSSTAYMQLSSLTSEDSAVYFCSRWRTSYFSDYGYFDYWGQGTTLTVSS VL: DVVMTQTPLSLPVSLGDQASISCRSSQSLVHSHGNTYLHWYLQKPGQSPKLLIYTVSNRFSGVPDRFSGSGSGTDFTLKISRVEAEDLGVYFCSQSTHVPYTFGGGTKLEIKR
Completion: 157000

Prompt: Check 33C3 (antibody, V domains shown) VH: QVTLKESGPGILQPSQTLSLTCSFSGFSLSTSDLGVGWIRQPSGKGLEWLAHIWWDDVKRYNPALKSRLTISKDTSSSQVFLMIASVDTADTATYYCARIGSSGYIYYEMDYWGQGTSVTVSS VL: DIQMTQTTSSLSASLGDRVTITCRASQDIRNYLNWYQQKPDGTVKLLIYYTSRLHSGVPSRFSGSGSGTDYSLTISNLDQEDIATYFCQQGNTLPLTFGGGTRLEIKR too.
Completion: 770000
